# Test system: HT29 colon
# method.summary: NCI-60 one-dose screen, 48 h (100 = growth as untreated, 0 = no growth, -100 = all killed)
# condition.description: 10 µM
This is part of a sample that, as a whole, favours compounds with a hit. Of some 83,000 tested, about 20% had one in any assay.
# label = Fulfilled if growth < 30% else Not fulfilled

> print(dat)
                                   molecule    class.label
1  COc1cc(Cl)cc(-c2nn(-c3cccc(NC(=O)Nc4ccc(Cl)c(Cl)c4)c3)cc2-c2ccncc2)c1      Fulfilled
2  N#CCCN1C/C(=C/c2ccccc2)C(=O)/C(=C/c2ccccc2)C1      Fulfilled
3  COC(=O)C(C(C[N+](=O)[O-])c1ccccc1)=P(c1ccccc1)(c1ccccc1)c1ccccc1 (centres undefined)  Not fulfilled
4  FC(F)(F)c1ccc2nc(-c3nc(-c4ccccc4)n4ccccc34)[nH]c2c1      Fulfilled
5  COc1ccc(-c2nc3sc(-c4ccccc4)c(-c4ccccc4)n3c2/C=C/C(=O)c2ccccn2)cc1  Not fulfilled
6  O=C1Nc2ccc(Cl)cc2/C1=C\c1c(-c2ccc(Cl)cc2)nc2sc(C3CC3)nn12  Not fulfilled
7  Nc1c(C(=O)Nc2cccc(F)c2)sc2nc3c(cc12)C(=O)CCC3      Fulfilled
8                 C(CCCC1=NCCO1)CCCC1=NCCO1  Not fulfilled
9  CC/C(=C(/c1ccc(OCCN(C)C)cc1)c1ccc(OC(=O)CCCCCCCCC(=O)c2c(C)[nH]c(/C=C3\N=C(c4ccc[nH]4)C=C3OC)c2C)cc1)c1ccccc1      Fulfilled

---

# System: CCRF-CEM leukemia
# method.summary: NCI-60 one-dose screen, 48 h (100 = growth as untreated, 0 = no growth, -100 = all killed)
# condition.description: 10 µM
The panel holds about 83,000 compounds, 20% with a hit somewhere; the sample as a whole holds those more often.
metric: growth (%)

> print(dat)
                                    molecule  recorded.result
 1  Cn1c([N+](=O)[O-])cnc1/C=C1\Oc2cc(Cl)ccc2C1=O           -0.667
 2  COc1ccc(/C=C/C(=O)Nc2ccc(-c3nc4ccc(OC)cc4s3)cc2)cc1             98.3
 3  COc1ccc2c(c1)C(=O)c1c-2c(OCCN(C)C)nc2cc(OC)c(OC)cc12             28.2
 4  O=C(N/N=C/c1ccccc1)C(Oc1ccccc1)c1ccccc1 (configuration not stated)             93.7
 5  COc1cc(/C(=C2/O[C@@H]([C@H]3COC(C)(C)O3)[C@H]3OC(C)(C)O[C@@H]23)c2ccc3ccccc3c2)cc(OC)c1OC             82.2
 6  O=C(O)CC(Cl)C(Cl)CC(=O)O (configuration not stated)             89.9
 7  Cc1ccc(-c2nc(/C=C3/C(=O)N(C)c4ccc(F)cc43)c3ccccn23)cc1              111
 8  CN1c2ccccc2[C@]2(Cc3ccccc3)Cc3ccccc3N[C@H]12             92.2
 9  CC1(C)N=C(N)N=C(N)N1c1ccc(CCc2ccccc2)c(Cl)c1             19.8
10  CN(C)CCOc1nc2ccccc2c2c1-c1ccc(Cl)cc1C2=O             2.75
11          COc1ccc2c(c1)nc(N)c1c3cccnc3cn21             22.7
12  Cc1ccc(S(=O)(=O)Oc2ccc3c4c(c(=O)oc3c2)CCCCC4)cc1               43
13  COc1ccc2c(c1)sc1nc(-c3ccccc3)c(-c3cccnc3)n12             93.1
14  COc1cc2c(cc1OCCCCCCN1CCN(CC(=O)Nc3ccc(Cl)cc3C(=O)c3ccccc3Cl)CC1)N=CC1CCCN1C2=O (configuration not stated)            -66.3
15  CCCCCCCCCCCCCCCCN(C(C)c1ccccc1)S(=O)(=O)c1ccc(OC)c(N)c1 (configuration not stated)             97.5
16  COc1ccc2c(c1OC)O/C(=C\c1ncc([N+](=O)[O-])n1C)C2=O             4.93
17    Fc1cc(C(F)(F)F)ccc1-c1cncnc1NC1CCCCCC1             91.2
18  N#CCCN1C/C(=C/c2ccccc2)C(=O)/C(=C/c2ccccc2)C1            -1.14
19  COc1ccc(-c2nc3sc(-c4ccccc4)c(-c4ccccc4)n3c2/C=C/C(=O)c2ccccn2)cc1             52.4
20  O=C1OCC2=C1C(c1cccc(Cl)c1)c1cc3c(cc1N2CCO)OCO3 (configuration not stated)             9.39
21         NC1=NC(=O)C(c2ccccc2)(c2ccccc2)S1             97.1
22  C=C1c2c(C)nn(-c3ccc(OC)cc3)c2N(C)C23C[C@@H]1C1(C)c4c(C)nn(-c5ccc(OC)cc5)c4N(C)C(C)(C[C@H]12)C3 (some centres not stated)             21.7
23  COc1cccc(-c2cc(-c3cccc(NS(C)(=O)=O)c3)nc(N)c2C#N)c1O             12.3
24  CC(C)=CCc1cc(O)cc2c1OC(C=C(C)C)C1=C2C(=O)C2=C(C1=O)S(=O)(=O)CCN2 (configuration not stated)            -11.9
25  O=C(Nc1nc2ccccc2s1)Nc1ccc([N+](=O)[O-])cc1Cl             57.7
26  O=C1Nc2ccc(Cl)cc2/C1=C\c1c(-c2ccc(Cl)cc2)nc2sc(C3CC3)nn12             93.6
27  Nc1ccccc1NC(=O)CCCCC(=O)Nc1ccc2c(c1)/C(=C/c1ccc[nH]1)C(=O)N2             50.7
28  O=C(Nc1ccccc1)Nc1cccc(-n2cc(-c3ccncc3)c(-c3ccc(O)c(Cl)c3)n2)c1             29.9
29  COc1ccc(NC2=NC(C)(CO)CS2)cc1 (configuration not stated)             89.6
30  COc1ccc2c(c1)[n+]([O-])c(C#N)c(NC(=O)c1ccco1)[n+]2[O-]              220
31      CC(C)(Cl)CCC1=C(Cl)C(=O)c2ccccc2C1=O            -33.9
32  CCC1(C(C)C)NC(=O)NC1=O (configuration not stated)             92.4
33  CC1(O)CCC2CC3OC3(C)CCC3OC3(C)CCC1C2(C)C (configuration not stated)              267
34  COc1cc2cc3c(nc2cc1OC)CCN3Cc1ccc(NC(=O)Nc2ccc(F)cc2F)cc1             71.7
35  CC(=O)C1CCC2C3CC(F)C4=CC(=O)CCC4(C)C3C(O)CC12C (configuration not stated)             93.6
36  Nc1c(C(=O)Nc2cccc(F)c2)sc2nc3c(cc12)C(=O)CCC3             17.9
37              Clc1ccccc1N=Cc1ccc2c(c1)OCO2             88.8
38               c1ccc([C@H]2CN3CCSC3=N2)cc1             99.1
39  COC(=O)C1=NNC(=S)N(c2cc(C)[nH]n2)C(=O)C1             91.8
40  COc1ccc2c(c1)C(=O)c1c-2c(OCCN(C)C)nc2ccccc12             20.9
41  CC[C@H]1CCC/C=C/[C@@H]2C[C@H](O)C[C@H]2[C@H](O)/C=C/C(=O)O1             7.71
42                 NC(=O)CC1(c2ccccc2)CCCCC1             98.9

---

Attribute: growth
# System: CAKI-1 renal
# method.summary: NCI-60 one-dose screen, 48 h (100 = growth as untreated, 0 = no growth, -100 = all killed)
# condition.description: 10 µM
The panel holds about 83,000 compounds, 20% with a hit somewhere; the sample as a whole holds those more often.
metric: growth (%)

> print(dat)
                                    compound  metric  recorded.result
 1            Cc1cc(=O)n2nnc3c4ccccc4ccc3n12  growth             67.8
 2  Cc1cc(O)c(C(C)(C)C)cc1Sc1cc(C(C)(C)C)c(O)cc1C  growth             32.3
 3  COc1ccc(-c2nc(-c3nc4cc(Cl)c(Cl)cc4[nH]3)c3ccccn23)cc1  growth             43.5
 4  CCC(=O)N1C/C(=C/c2ccc(OC)cc2)C(=O)/C(=C/c2ccc(OC)cc2)C1  growth             13.1
 5           Cc1cc2c(C)c3cc(C)c(N)cc3nc2cc1N  growth             14.8
 6  Cc1nc2ccc(CN(C)c3ccc(C(=O)N[C@@H](CCC(=O)O)C(=O)O)s3)cc2c(=O)[nH]1  growth             28.5
 7  COc1cc2cc3c(nc2cc1OC)CCN3Cc1ccc(NC(=O)Nc2ccc(F)cc2F)cc1  growth             62.3
 8  CC/C(=C(/c1ccc(OCCN(C)C)cc1)c1ccc(OC(=O)CCCCC(=O)c2c(C)[nH]c(/C=C3\N=C(c4ccc[nH]4)C=C3OC)c2C)cc1)c1ccccc1  growth             47.6
 9  CO/N=C(/C(=O)NC1C(=O)N2C(C(=O)O)=C(COC(N)=O)CSC12)c1ccco1 (configuration not stated)  growth             91.3
10                 O=C1Nc2ccccc2C1=NC1CCCCC1  growth             79.3
11  O=C1OCC2=C1C(c1cccc(Cl)c1)c1cc3c(cc1N2CCO)OCCO3 (configuration not stated)  growth             19.9
12                  Nc1ncnc2[nH]c(=O)[nH]c12  growth             6.82
13    Fc1cc(C(F)(F)F)ccc1-c1cncnc1NC1CCCCCC1  growth             85.5
14  O=[N+]([O-])c1ccc(Oc2cc(Cl)c(Cl)cc2Cl)c(C(F)(F)F)c1  growth             92.3
15              Clc1ccccc1N=Cc1ccc2c(c1)OCO2  growth             93.6
16  Nc1nc(N)c(NC(=O)CNc2ccc(C(=O)O)cc2)c(N)n1  growth             91.5
17  O=C1/C(=C/c2ccc([N+](=O)[O-])s2)Oc2ccccc21  growth            -26.8
18  O=[N+]([O-])c1ccc(Oc2cccnc2)c([N+](=O)[O-])c1  growth            -9.25
19               O=C(O)CCCCSc1ncnc2nc[nH]c12  growth             93.5
20  C=C1c2c(C)nn(-c3ccc(OC)cc3)c2N(C)C23C[C@@H]1C1(C)c4c(C)nn(-c5ccc(OC)cc5)c4N(C)C(C)(C[C@H]12)C3 (some centres not stated)  growth             2.18
21  CC(=O)N1C/C(=C/c2ccc(Cl)cc2)C(=O)/C(=C/c2ccc(Cl)cc2)C1  growth              -15
22  COc1ccc2c(c1)sc1nc(-c3ccccc3)c(-c3ccsc3)n12  growth             27.9
23  O=C(C[P+](c1ccccc1)(c1ccccc1)c1ccccc1)C[P+](c1ccccc1)(c1ccccc1)c1ccccc1  growth            -96.1
24  COc1ccc(/C=C2/CN(C(=O)c3ccc(C)cc3)C/C(=C\c3ccc(OC)cc3)C2=O)cc1  growth             85.2
25  COc1cc(-c2cc(/C=C/C(=O)c3ccc(N)cc3)[nH]n2)cc(OC)c1OC  growth             9.46
26     COc1cccc(Cn2c(-c3nonc3N)nc3ccccc32)c1  growth             20.5
27    Nc1c(C(=O)Nc2ccccc2)sc2nc3c(cc12)CCCC3  growth             26.7
28  N#CCCN1C/C(=C/c2ccc(Cl)cc2)C(=O)/C(=C/c2ccc(Cl)cc2)C1  growth            -9.22
29  Cc1occc1-c1nnc(SCC(=O)c2ccc(NC(=O)CC(C)C)cc2)o1  growth             84.1
30  COc1ccc(C2=Nc3c(C)nn(-c4ccccc4)c3NC(c3ccc(Oc4ccnc5cc(Cl)ccc45)c(OC)c3)C2)cc1 (configuration not stated)  growth             70.8
31                               CSC1=NCCCC1  growth              115
32  COc1cc(-c2cc(/C=C/C(=O)c3ccc(Cl)c(Cl)c3)[nH]n2)cc(OC)c1OC  growth             82.9
33  O=C(Nc1ccc(Cl)c(Cl)c1)Nc1c(Oc2ccc(Cl)c(Cl)c2)ccc(Cl)c1S(=O)(=O)O  growth             12.1
34  COc1ccc(NC(=O)CSc2nc3ccccc3c(=O)n2CCc2ccccc2)cc1  growth             87.5
35   O=C(Nc1cccc(Br)c1)c1cc(=O)[nH]c2ccccc12  growth             76.6
36  CN1c2ccccc2[C@]2(Cc3ccccc3)Cc3ccccc3N[C@H]12  growth              112
37                 C(CCCC1=NCCO1)CCCC1=NCCO1  growth              103
38  Cc1ccc(C(=O)N2C/C(=C/c3ccc(F)cc3)C(=O)/C(=C/c3ccc(F)cc3)C2)cc1  growth             81.3
39       c1ccc(CNc2ncnc3scc(-c4cccs4)c23)nc1  growth               58
40  O=C(CCCCC(=O)Nc1ccc2c(c1)/C(=C/c1ccc[nH]1)C(=O)N2)NO  growth             97.8
41               C/C(N)=C(\C#N)C(=O)c1ccccc1  growth              107
42      CSc1nc(=O)n(Cc2ccc(Cl)cc2)c(=O)[nH]1  growth              112
